- Tested on: K-562 leukemia
- EXPERIMENT: NCI tumour cell line growth inhibition, 48 h; in the data active means GI50 below about 0.43 µM; inactive means the rest
Answer with one of the outcomes 1 = active, -1 = inactive

Which outcome did this test record for the compound `CCOC(=O)c1sc(-c2ccc(OS(=O)(=O)c3cccs3)c(C=O)c2)nc1C` ?
-1

Which outcome did this test record for the compound `CC1(C)CCC[C@]23C(=O)O[C@](O)(C(=O)C4=C[C@@](C)(/C=C/CCCc5ccc6ccc7cccc8ccc5c6c78)CC[C@@]42O)[C@@H]13` ?
1

Which outcome did this test record for the compound COc1cc(C)c(C(=O)O[C@H]2[C@H](O[C@H]3[C@@H](O)COC(O[C@H]4C[C@H]5[C@@H]6CC=C7C[C@@H](O)CC[C@]7(C)[C@H]6CC[C@]5(C)[C@H]4[C@H](C)C(=O)CCC(C)C)[C@@H]3OC(C)=O)OC[C@@H](O)[C@@H]2O)c(C)c1 (stereo partly drawn) ?
1

Which outcome did this test record for the compound `Cc1ccc2c(c1)C(=O)c1c-2n(CCCN)c(=O)c2cc([N+](=O)[O-])ccc12` ?
1

Which outcome did this test record for the compound `COc1ccc(OC)c(-c2nc3sccn3c2/C=C2/C(=O)Nc3ccc(Cl)cc32)c1` ?
-1

Which outcome did this test record for the compound `CCN(CC)CCN1C(=O)c2c(c(C)c3c(oc4cc(O)ccc43)c2C)C1=O` ?
-1

Which outcome did this test record for the compound `COc1cc(-c2cc(-c3ccc(N(C)C)cc3)nc(N3CCOCC3)c2C#N)cc(OC)c1OC` ?
-1

Which outcome did this test record for the compound `O=C1c2[nH]cc(CN3CCNCC3)c2C(=O)c2c1c(O)c1ccccc1c2O` ?
-1

###

Please go through the items and note down their TGI.
- Test system: EKVX NSCLC
- EXPERIMENT: NCI tumour cell line growth inhibition, 48 h

Note to self: TGI recorded for CC1=CC(O)C(O)C2(C)C1CC1OC(=O)C(O)C3C(C)C(O)C4(O)OCC13C42 (stereo not drawn) was 197 µM

Note to self: TGI recorded for `O=C(c1cc(O)ccc1O)c1ccccc1C(Cl)(Cl)Cl` was > 100 µM

Note to self: TGI recorded for `Cc1ccc(S(=O)(=O)N(/N=C(\N)Oc2ccc(Cl)cc2)C(=N)Oc2ccc(Cl)cc2)cc1` was > 100 µM

Note to self: TGI recorded for `CC(=O)O[C@H]1C#C/C=C\C#CC[C@@H]2C(=O)N(C(=O)OC(C)(C)C)[C@@H]12` was > 100 µM

Note to self: TGI recorded for `O=P(Oc1ccc(Cl)cc1)(Oc1ccc(Cl)cc1)N1CC1` was > 10 µM

Note to self: TGI recorded for `COc1ccc(/C(C)=C(\c2ccc(Cl)cc2)c2ccc(OCCN3CCCC3)cc2)cc1` was 7.3 µM

Note to self: TGI recorded for `c1ccc(CCN2CCCCCC2)nc1` was > 100 µM

Note to self: TGI recorded for C=C1CCC2C3(C)COC(c4ccc(NC(C)=O)cc4)OC3CCC2(C)C1C/C=C1/C(=O)OCC1O (stereo not drawn) was > 100 µM

Note to self: TGI recorded for COC(=O)C1=C(O)C(C(=O)OC)[C@@]2(O)[C@@H](C(=O)OC)C(c3ccc(OC(=O)/C(=C/c4ccc(Cl)cc4)c4ccc(Cl)cc4)cc3)C[C@@H]1[C@@H]2C(=O)OC (stereo partly drawn) was > 100 µM

Note to self: TGI recorded for `Cc1cc(C)cc(-n2c3nc(=O)n(C)c(=O)c-3nc3ccccc32)c1` was 44.7 µM

Note to self: TGI recorded for `O=c1[nH]cc(CS(=O)(=O)Cc2c[nH]c(=O)[nH]c2=O)c(=O)[nH]1` was > 100 µM

Note to self: TGI recorded for `O=C1NC(=S)N/C1=C/c1ccccc1O` was > 100 µM

Note to self: TGI recorded for `Cc1ccc2nc3c(C)c(Cl)c(=O)cc-3sc2c1` was > 95.6 µM

###

Please go through the items and note down their TGI.
- System: CCRF-CEM leukemia
- EXPERIMENT: NCI tumour cell line growth inhibition, 48 h

Note to self: TGI recorded for `COC(=O)c1sc(=S)sc1SCc1ccccc1CSc1sc(=S)sc1C(=O)OC` was 87.6 µM

Note to self: TGI recorded for CC1(O)C=CC2CCC1C2O (stereo unspecified) was > 100 µM

Note to self: TGI recorded for `CC1(C)N=C(N)N=C(N)N1c1cccc(C#N)c1` was > 100 µM

Note to self: TGI recorded for `COc1ccc(N2CCN(C(=O)c3ccccc3Nc3ccnc(C(F)(F)F)c3)CC2)cc1` was > 100 µM

Note to self: TGI recorded for `CC(C)(C)N=C1CC(C)(C)c2ccccc2C(=Nc2ccccc2)S1` was > 100 µM

Note to self: TGI recorded for `CCN(CC)CCN1C(=O)c2c(c(C)c3c(oc4cc(O)ccc43)c2C)C1=O` was 6.25 µM

###

- Test system: CCRF-CEM leukemia
- EXPERIMENT: NCI tumour cell line growth inhibition, 48 h; in the data active means GI50 below about 0.43 µM; inactive means the rest
Answer with one of the outcomes active, inactive

Which outcome did this test record for the molecule `COc1cc(-c2cc(-c3ccc(N(C)C)cc3)nc(N3CCOCC3)c2C#N)cc(OC)c1OC` ?
inactive

Which outcome did this test record for the molecule `O=C(/C=C/c1ccc(C(F)(F)F)cc1)c1ccc(Nc2nc(NCCO)nc(NCCO)n2)cc1` ?
inactive

Which outcome did this test record for the molecule `Cc1ccc(Cl)cc1Nc1nc(C(F)(F)F)ccc1C(=O)Nc1cccc(C(F)(F)F)c1` ?
inactive

Which outcome did this test record for the molecule `C/C1=C\[C@H](C)C[C@H](C)OC(=O)C[C@H](c2ccc(O)cc2)NC(=O)[C@@H](Cc2c(Br)[nH]c3ccccc23)N(C)C(=O)[C@H](C)NC(=O)[C@@H](C)C1` ?
active

Which outcome did this test record for the molecule `CC1(C)CCC[C@]23C(=O)O[C@](O)(C(=O)C4=C[C@@](C)(/C=C/CCCc5ccc6ccc7cccc8ccc5c6c78)CC[C@@]42O)[C@@H]13` ?
active

Which outcome did this test record for the molecule `CN(C)CCCNc1nn2c(=O)c3ccccc3nc2c2ccccc12` ?
inactive

Which outcome did this test record for the molecule `CCOC(=O)c1sc(-c2ccc(OS(=O)(=O)c3cccs3)c(C=O)c2)nc1C` ?
inactive

Which outcome did this test record for the molecule CC(CN=C(CC(=O)c1ccc(Br)cc1)c1ccccc1)N=C(CC(=O)c1ccc(Br)cc1)c1ccccc1 (centres undefined) ?
inactive

Which outcome did this test record for the molecule `COc1ccc(-c2ccc(/C=C/C(=O)NO)cc2)cc1` ?
active

Which outcome did this test record for the molecule `S=c1nc(-c2ccccc2)oc(=NC2CCCCC2)n1C1CCCCC1` ?
inactive

Which outcome did this test record for the molecule COC(=O)C[CH](C(=O)OC)[Ge]([CH3])([CH3])[S]c1ccccc1 (centres undefined) ?
inactive

Which outcome did this test record for the molecule `O=C(c1ccccc1Nc1ccnc(C(F)(F)F)c1)N1CCN(c2cccc(Cl)c2)CC1` ?
inactive

Which outcome did this test record for the molecule `Oc1ccc2oc3ncc(Cl)c(-c4ccccc4)c3c2c1` ?
inactive

Which outcome did this test record for the molecule C#CCN1C(=O)/C(=c2\sc3n(c2=O)C2C(NN=3)N(CC)C(=O)N2CC)c2ccccc21 (centres undefined) ?
active

###

- System: SF-295 CNS
- EXPERIMENT: NCI tumour cell line growth inhibition, 48 h
PROPERTY MEASURED: TGI (µM)
Your answer should be a plain number; it is taken to be in µM.

Note to self: TGI recorded for `C=C(CN1CCN(c2ccccc2OC)CC1)c1ccc(C(=O)Nc2ccccc2N)cc1` was 15.4

Note to self: TGI recorded for `Cc1ccc2nc3c(C)c(Cl)c(=O)cc-3sc2c1` was 81.3

Note to self: TGI recorded for `COc1ccc(OC)c(-c2nc3sccn3c2/C=C2/C(=O)Nc3ccc(Cl)cc32)c1` was 51.5

Note to self: TGI recorded for `COc1ccc(/C=C/c2c(C(=O)/C=C/c3ccc(Cl)cc3)c(C)nc3ccccc23)cc1` was 3.61

Note to self: TGI recorded for `C/C(=C/CO[Si](C)(C)C(C)(C)C)C(=O)N(C)c1ccccc1I` was 31.5

Note to self: TGI recorded for `CCN(CC)CCN1C(=O)c2c(c(C)c3c(oc4cc(O)ccc43)c2C)C1=O` was 2.98

###

- Tested on: MOLT-4 leukemia
- EXPERIMENT: NCI tumour cell line growth inhibition, 48 h
Please go through the items and note down their TGI.

Note to self: TGI recorded for `CCOC(=O)C(C)(C)Oc1ccc2c(=O)cc(-c3ccccc3)oc2c1` was 32.5 µM

Note to self: TGI recorded for `O=C(/C=C/c1ccc(C(F)(F)F)cc1)c1ccc(Nc2nc(NCCO)nc(NCCO)n2)cc1` was 10.7 µM

Note to self: TGI recorded for `NCCCCCS(=O)(=O)O` was > 100 µM

Note to self: TGI recorded for `Clc1nc(-[n+]2ccc(-c3ccncc3)cc2)nc(Nc2ccccc2)c1Cl` was > 100 µM

Note to self: TGI recorded for C/C(=N\NC(N)=O)C(CN1CCCCC1)C(c1ccccc1)c1c(O)c2ccccc2oc1=O (stereo not drawn) was > 94.4 µM

Note to self: TGI recorded for COP(=O)(OC)C(N)CCSC (stereo not drawn) was > 100 µM

Note to self: TGI recorded for CC1(O)C=CC2CCC1C2O (stereo not drawn) was > 100 µM

Note to self: TGI recorded for `O=C(N/N=C\c1cccc2ccccc12)Nc1ccc([N+](=O)[O-])cc1` was > 100 µM

Note to self: TGI recorded for `O=P(Oc1ccc(Cl)cc1)(Oc1ccc(Cl)cc1)N1CC1` was > 10 µM

Note to self: TGI recorded for `CCCn1c(C23CC4CC(CC(C4)C2)C3)nc2ccc(Cl)cc2c1=O` was > 100 µM

Note to self: TGI recorded for `Nc1[nH]c(=O)ncc1F` was > 100 µM

Note to self: TGI recorded for CC(=O)N(CN1C(=O)CCC1C(=O)O)c1ccccc1 (stereo not drawn) was > 100 µM

Note to self: TGI recorded for COC(=O)C1=C(OC)c2cc3c(cc2C(c2cc(OC)c(OC)c(OC)c2)C1C(=O)OC)OCO3 (stereo not drawn) was > 100 µM

Where these numbers come from: PubChem BioAssay (NCI)
